assayOverview: Beagle dog pharmacokinetics
Type: in vivo
conditionDetails: male, plasma, iv

structureSmiles | AUC (ng·h/mL)
CCC(=O)c1ccc(Cl)cc1-c1cc(=O)n([C@@H](Cc2ccccc2)C(=O)Nc2ccc(C(=O)O)cc2)nc1OC | 756
COc1nn([C@@H](Cc2ccccc2)C(=O)Nc2ccc(C(=O)O)cc2)c(=O)cc1-c1cc(Cl)ccc1C(C)=O | 1410

###

Quick list: Cmax per entry.
assayOverview: Cynomolgus monkey pharmacokinetics
Type: in vivo
conditionDetails: male, plasma, po, ig
parameterMeasured: Cmax

molecule | measurement
COCCOc1nn([C@@H](Cc2ccccc2)C(=O)Nc2ccc(C(=O)O)cc2)c(=O)cc1-c1cc(Cl)ccc1C(C)=O | 27.2 ng/mL
COc1cn([C@@H](Cc2ccccc2)C(=O)Nc2ccc(C(=O)O)cc2)c(=O)cc1-c1cc(Cl)ccc1C(C)=O [Compound B, reference compound] | 108 ng/mL
COc1nn([C@@H](Cc2ccccc2)C(=O)Nc2ccc(C(=O)O)cc2)c(=O)cc1-c1cc(Cl)ccc1C(C)=O | 198 ng/mL

###

targetDesc: CYP1A2 (Homo sapiens)
Sequence (P05177 1-516): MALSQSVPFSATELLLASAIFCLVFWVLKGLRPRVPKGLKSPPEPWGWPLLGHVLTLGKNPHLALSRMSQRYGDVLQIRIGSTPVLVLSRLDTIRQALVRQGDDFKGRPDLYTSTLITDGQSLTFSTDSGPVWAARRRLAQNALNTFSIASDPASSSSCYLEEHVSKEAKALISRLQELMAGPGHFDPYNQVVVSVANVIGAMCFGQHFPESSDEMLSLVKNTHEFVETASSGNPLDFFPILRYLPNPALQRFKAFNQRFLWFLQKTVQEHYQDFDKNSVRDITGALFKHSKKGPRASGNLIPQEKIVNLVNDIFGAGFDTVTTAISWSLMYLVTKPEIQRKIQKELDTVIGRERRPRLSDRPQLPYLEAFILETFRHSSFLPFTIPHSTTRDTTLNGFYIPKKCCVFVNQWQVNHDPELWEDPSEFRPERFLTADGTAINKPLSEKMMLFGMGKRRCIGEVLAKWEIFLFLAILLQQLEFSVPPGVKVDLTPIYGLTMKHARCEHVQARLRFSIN
parameterMeasured: IC50

structureSmiles | measurement
CCC(=O)c1ccc(Cl)cc1-c1cc(=O)n([C@@H](Cc2ccccc2)C(=O)Nc2ccc(C(=O)O)cc2)nc1OC | > 50 µM

###

assayOverview: Rat pharmacokinetics
Type: in vivo, SD rats
Parameters: concentration or dose not given beside the values
conditionDetails: male, SD, plasma, iv
// values below are reported AUC

compound | measureUnit | AUC
O=C(O)c1ccc(NC(=O)[C@H](Cc2ccccc2)n2cnc(-c3cc(Cl)ccc3-n3cc(Cl)nn3)cc2=O)cc1 [Compound A, reference compound] | µg·h/mL | 1.41
CC(=O)c1ccc(Cl)cc1-c1cc(=O)n([C@@H](Cc2ccccc2)C(=O)Nc2ccc(C(=O)O)cc2)nc1OC1COC1 [Example 24] | µg·h/mL | 0.457
CCOc1nn([C@@H](Cc2ccccc2)C(=O)Nc2ccc(C(=O)O)cc2)c(=O)cc1-c1cc(Cl)ccc1C(C)=O [Example 16] | µg·h/mL | 1.09

###

Entries and their Tmax values follow.
assayOverview: Rat pharmacokinetics
Assay type: in vivo, SD rats
conditionDetails: male, SD, plasma, po, ig
parameterMeasured: Tmax (min)

compound | measureUnit | measurement
CC(=O)c1ccc(Cl)cc1-c1cc(=O)n([C@@H](Cc2ccccc2)C(=O)Nc2ccc(C(=O)O)cc2)nc1OCCO [Example 6] | min | 60
CC(=O)c1ccc(Cl)cc1-c1cc(=O)n([C@@H](Cc2ccccc2)C(=O)Nc2ccc(C(=O)O)cc2)nc1OC(F)F [Example 25] | min | 37.5
COc1nn([C@@H](Cc2ccccc2)C(=O)Nc2ccc(C(=O)O)cc2)c(=O)cc1-c1cc(Cl)ccc1C(C)=O [Example 19] | min | 75
O=C(O)c1ccc(NC(=O)[C@H](Cc2ccccc2)n2cnc(-c3cc(Cl)ccc3-n3cc(Cl)nn3)cc2=O)cc1 [Compound A, reference compound] | min | 30
CCOc1nn([C@@H](Cc2ccccc2)C(=O)Nc2ccc(C(=O)O)cc2)c(=O)cc1-c1cc(Cl)ccc1C(C)=O [Example 16] | min | 22.5
COc1nn([C@@H](Cc2ccccc2)C(=O)Nc2ccc3[nH]c(C(=O)O)cc3c2)c(=O)cc1-c1cc(Cl)ccc1C(C)=O [Example 15] | min | 30
CC(=O)c1ccc(Cl)cc1-c1cc(=O)n([C@@H](Cc2ccccc2)C(=O)Nc2ccc(C(=O)O)cc2)nc1OC1COC1 [Example 24] | min | 30
COCCOc1nn([C@@H](Cc2ccccc2)C(=O)Nc2ccc(C(=O)O)cc2)c(=O)cc1-c1cc(Cl)ccc1C(C)=O [Example 21] | min | 90
CCC(=O)c1ccc(Cl)cc1-c1cc(=O)n([C@@H](Cc2ccccc2)C(=O)Nc2ccc(C(=O)O)cc2)nc1OC [Example 32] | min | 20

###

assayOverview: Cynomolgus monkey pharmacokinetics
Assay type: in vivo
conditionDetails: male, plasma, iv, read-out: Vss
Listing of recorded Vd by entry.

molecule | Vd / L/kg
COCCOc1nn([C@@H](Cc2ccccc2)C(=O)Nc2ccc(C(=O)O)cc2)c(=O)cc1-c1cc(Cl)ccc1C(C)=O | 0.699
COc1cn([C@@H](Cc2ccccc2)C(=O)Nc2ccc(C(=O)O)cc2)c(=O)cc1-c1cc(Cl)ccc1C(C)=O [Compound B, reference compound] | 0.2
COc1nn([C@@H](Cc2ccccc2)C(=O)Nc2ccc(C(=O)O)cc2)c(=O)cc1-c1cc(Cl)ccc1C(C)=O | 0.65

###

assayOverview: Caco-2 permeability
Format: in vitro ADME
conditionDetails: human, Caco-2; Papp(B-A)/Papp(A-B)
Reported values of efflux ratio at 2 h for individual entries

molecule | efflux ratio at 2 h
COc1cn([C@@H](Cc2ccccc2)C(=O)Nc2ccc(C(=O)O)cc2)c(=O)cc1-c1cc(Cl)ccc1C(C)=O [Compound B, reference compound] | 8.75
COc1nn([C@@H](Cc2ccccc2)C(=O)Nc2ccc(C(=O)O)cc2)c(=O)cc1-c1cc(Cl)ccc1C(C)=O | 16.3
CCC(=O)c1ccc(Cl)cc1-c1cc(=O)n([C@@H](Cc2ccccc2)C(=O)Nc2ccc(C(=O)O)cc2)nc1OC | 18.3

###

assayOverview: Rat pharmacokinetics
Assay type: in vivo, SD rats
conditionDetails: ig
Each entry below carries its recorded F.
parameterMeasured: F (%)

molecule | measurement
COCCOc1nn([C@@H](Cc2ccccc2)C(=O)Nc2ccc(C(=O)O)cc2)c(=O)cc1-c1cc(Cl)ccc1C(C)=O [Example 21] | 14.9
CCC(=O)c1ccc(Cl)cc1-c1cc(=O)n([C@@H](Cc2ccccc2)C(=O)Nc2ccc(C(=O)O)cc2)nc1OC [Example 32] | 5.4
CC(=O)c1ccc(Cl)cc1-c1cc(=O)n([C@@H](Cc2ccccc2)C(=O)Nc2ccc(C(=O)O)cc2)nc1OC(F)F [Example 25] | 8.6

###

assayOverview: Beagle dog pharmacokinetics
Type: in vivo
conditionDetails: male, plasma, iv

compound | clearance
CCC(=O)c1ccc(Cl)cc1-c1cc(=O)n([C@@H](Cc2ccccc2)C(=O)Nc2ccc(C(=O)O)cc2)nc1OC [Example 32] | 22.7 mL/min/kg
COc1nn([C@@H](Cc2ccccc2)C(=O)Nc2ccc(C(=O)O)cc2)c(=O)cc1-c1cc(Cl)ccc1C(C)=O [Example 19] | 11.8 mL/min/kg

###

assayOverview: Cynomolgus monkey pharmacokinetics
Assay type: in vivo
conditionDetails: male, plasma, iv
Entries and their Tmax values follow.

molecule | Tmax / min
COc1cn([C@@H](Cc2ccccc2)C(=O)Nc2ccc(C(=O)O)cc2)c(=O)cc1-c1cc(Cl)ccc1C(C)=O [Compound B, reference compound] | 4.98
COc1nn([C@@H](Cc2ccccc2)C(=O)Nc2ccc(C(=O)O)cc2)c(=O)cc1-c1cc(Cl)ccc1C(C)=O | 4.98
COCCOc1nn([C@@H](Cc2ccccc2)C(=O)Nc2ccc(C(=O)O)cc2)c(=O)cc1-c1cc(Cl)ccc1C(C)=O | 4.98

###

assayOverview: Rat pharmacokinetics
Format: in vivo, SD rats
conditionDetails: male, SD, plasma, po, ig
Consider the following molecules and their measured Cmax readings.

structureSmiles | Cmax, ng/mL
CCC(=O)c1ccc(Cl)cc1-c1cc(=O)n([C@@H](Cc2ccccc2)C(=O)Nc2ccc(C(=O)O)cc2)nc1OC | 242
CC(=O)c1ccc(Cl)cc1-c1cc(=O)n([C@@H](Cc2ccccc2)C(=O)Nc2ccc(C(=O)O)cc2)nc1OC1COC1 | 43.7
COc1nn([C@@H](Cc2ccccc2)C(=O)Nc2ccc3[nH]c(C(=O)O)cc3c2)c(=O)cc1-c1cc(Cl)ccc1C(C)=O | 3

###

assayOverview: Rat pharmacokinetics
Format: in vivo, SD rats
conditionDetails: male, SD, plasma, iv
Listed below: half-life values for each entry.

structureSmiles | half-life
CC(=O)c1ccc(Cl)cc1-c1cc(=O)n([C@@H](Cc2ccccc2)C(=O)Nc2ccc(C(=O)O)cc2)nc1OCCO | 9.72 min
COc1nn([C@@H](Cc2ccccc2)C(=O)Nc2ccc(C(=O)O)cc2)c(=O)cc1-c1cc(Cl)ccc1C(C)=O | 10.9 min
CCC(=O)c1ccc(Cl)cc1-c1cc(=O)n([C@@H](Cc2ccccc2)C(=O)Nc2ccc(C(=O)O)cc2)nc1OC | 99 min
